tested on: LXFL 529 NSCLC; assay: NCI tumour cell line growth inhibition, 48 h
METRIC NAME: TGI (µM)

                                   molecule  metric_name  censoring_sign  observed
0  CCCCCCC[CH2][Sn]([CH2]CCCCCCC)([O]c1cccc2cccnc12)[O]c1cccc2cccnc12          TGI               =       2.3
1  c1cncc(C2N3CCCCC3[C@@H]3c4[nH]c5ccccc5c4CCN23)c1 (stereo partly drawn)          TGI               >       100
2              NC(=O)c1cccc([N+](=O)[O-])c1          TGI               >       100
3  CC[C@@]1(O)C(=O)OCc2c1cc1n(c2=O)Cc2cc3cc4c(cc3nc2-1)OCO4          TGI               =     0.375
4  COc1c(O)c(C=O)c2c(O)c(-c3c(C)cc4c(C(C)C)c(OC)c(O)c(C=O)c4c3O)c(C)cc2c1C(C)C          TGI               =        12
5        CCOC(=O)/C(C1=NCCN1)=C(\O)c1ccccc1          TGI               >       100
6  Cc1ccc2c(c1)-c1c3c(nn1-c1ccccc1)-c1ccccc1SC3O2 (stereo not drawn)          TGI               >       100
7  Cc1ccccc1C1OC(=O)c2ccc3ccccc3c21 (stereo not drawn)          TGI               =      15.1

====

tested on: BT-549 breast; experiment: NCI tumour cell line growth inhibition, 48 h
This listing pairs molecules with measured TGI.
METRIC NAME: TGI (µM)

>>> df
                                   molecule  censoring_sign  observed
0    OC1(c2ccccc2)CCN(Cc2c[nH]c3ccccc23)CC1               >       100
1  O=C(N/N=C/C=C/c1ccc([N+](=O)[O-])o1)c1cc2ccccc2cc1O               =      3.02
2  O=C1OCC2=C1C(c1cccc(Cl)c1)c1cc3c(cc1N2CCO)OCCO3 (stereo not given)               =      11.8
3  CC1=C(c2cccc(O)c2)[C@H](c2ccc(OCCN3CC(CF)C3)cc2)Oc2ccc(O)cc21               =      23.2
4   COC(C(=O)NN)c1ccccc1 (stereo not given)               >       100
5                     Cc1[nH]c2ccccc2c1CCCO               >       100
6     O=C1CCCCC/C1=C\c1ccc([N+](=O)[O-])cc1               =      54.3
7  Cc1cc(F)ccc1S(=O)(=O)Nc1cc(-c2c(O)ccc3ccccc23)c(O)c2ccccc12               =      10.8
8  CC1C(=O)N(c2ccccc2)NC12CCCc1ccccc12 (stereo not given)               >       100
9  COc1ccc(N2C(=O)CC(=O)N(C(=O)COc3ccc(OCC(=O)N4C(=O)CC(=O)N(c5ccc(OC)cc5)C4=S)cc3)C2=S)cc1               >       100
